# studyTarget: Factor D (Homo sapiens, UniProt P00746)
# Sequence (P00746 26-253): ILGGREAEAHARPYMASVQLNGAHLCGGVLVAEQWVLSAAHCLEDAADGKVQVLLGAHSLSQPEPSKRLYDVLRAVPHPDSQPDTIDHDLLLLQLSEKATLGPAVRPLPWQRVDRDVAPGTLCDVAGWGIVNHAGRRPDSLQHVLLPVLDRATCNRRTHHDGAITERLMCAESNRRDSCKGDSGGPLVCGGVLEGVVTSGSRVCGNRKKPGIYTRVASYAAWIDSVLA
# testMethodNotes: Factor D esterolytic inhibition assay (Z-Lys-SBzl substrate)
# Type: biochemical
# Set-up: Factor D was purified from the urine of a patient with Fanconi syndrome by ion exchange chromatography; from tissue; host or cells: urine of a patient with Fanconi syndrome
# measurementParameters: Z-Lys-SBzl 1.29 mM, pH 7.5, 10% DMSO; read-out: Factor D (Serine Protease Inhibitory Data, IC50)
Each record here notes measured pIC50.
Remember, pIC50 is on a log scale: it is -log10 of the molar concentration.

> print(dat)
                                   compound  reading
1        N=C(N)c1cc2ccc(OC(=O)c3cccs3)cc2o1     5.04
2        N=C(N)c1cc2ccc(OC(=O)c3ccoc3)cc2s1     6.75
3  N=C(N)C1COc2cc(OC(=O)c3ccco3)ccc2C1 (stereo not shown)     4.30
4        N=C(N)c1nc2ccc(OC(=O)c3cccs3)cc2s1     6.60

# compound N=C(N)c1cc2ccc(OC(=O)c3ccco3)cc2o1 ; its pIC50 = 5.44

# compound N=C(N)C1=Cc2ccc(OC(=O)c3ccco3)cc2OC1 ; its pIC50 = 6.46

# compound N=C(N)c1cc2cc(OC(=O)c3ccoc3)ccc2o1 ; its pIC50 = 5.55
